Entry source: ChEMBL document CHEMBL3988442

- system.under.test: Protein translocase subunit SecA (Escherichia coli (strain K12))
- protocol: Assay to Identify E. coli SecA ATPase Inhibitors
- Assay type: functional
- Design: scale not given: direction of the effect not stated beside the values
- cond: 30 µM
Potency and affinity values are given separately.
measurement.name: Percent Effect (%)
Provide the reading as a plain figure in %.

Data request: Supply reported Percent Effect belonging to this molecule: COCC1CCCN(C(=O)c2cc(Cn3ccc4ccccc43)[nH]n2)C1 (stereo not drawn)
Data returned: -5.5

Data request: Supply reported Percent Effect belonging to this molecule: `CCc1nc(C)c([C@H]2CN(C)C[C@@H]2C(=O)Nc2ccc(OC)cc2)[nH]1`
Data returned: -5.53

Data request: Supply reported Percent Effect belonging to this molecule: `Cc1oc(C)c(C(=O)N2CCCN(Cc3cscn3)CC2)c1C`
Data returned: -6.32

Data request: Supply reported Percent Effect belonging to this molecule: c1cnc(N2CCC3(COCc4cnc(-c5cccnc5)nc43)C2)nc1 (stereo not drawn)
Data returned: -3.71

Data request: Supply reported Percent Effect belonging to this molecule: Cc1ccc(CNCc2nnc3n2CC(C(F)(F)F)CC3)cc1 (stereo not drawn)
Data returned: -0.646

Data request: Supply reported Percent Effect belonging to this molecule: c1cnn(CC2CN(CCc3ccncc3)CCO2)c1 (stereo not drawn)
Data returned: 1.49

Data request: Supply reported Percent Effect belonging to this molecule: CC(NC(=O)Nc1cc(F)ccc1N1CCCCC1)c1nncn1C (stereo not drawn)
Data returned: -4.95

Data request: Supply reported Percent Effect belonging to this molecule: `O=C(N1CCOCC1)[C@@]12CCO[C@@H]1CCN(CC1CCCCC1)C2`
Data returned: -4.88

Data request: Supply reported Percent Effect belonging to this molecule: Cc1nc2n(n1)CC(Nc1cc(C(F)(F)F)nc3ncnn13)CC2 (stereo not drawn)
Data returned: -4.34

Data request: Supply reported Percent Effect belonging to this molecule: `Cc1cc(S(=O)(=O)N2CCCc3cc(F)cc(F)c32)sc1C(=O)O`
Data returned: -9.52

Data request: Supply reported Percent Effect belonging to this molecule: `Cc1ccc(NC2CCN(C(=O)c3ccsc3)CC2)nn1`
Data returned: -9.11

Data request: Supply reported Percent Effect belonging to this molecule: O=C(C1CC(=O)N(C2CCCC2)C1)N1CCN(CCn2cccc2)CC1 (stereo not drawn)
Data returned: -3.53

Data request: Supply reported Percent Effect belonging to this molecule: CC(C)OCCCN1CCCC(c2nc3ccccc3n2C(C)C)C1 (stereo not drawn)
Data returned: -2.17

Data request: Supply reported Percent Effect belonging to this molecule: `COCCC(=O)N1CC[C@@H]2O[C@@H](C)C[C@H]2C1`
Data returned: -6.08

Data request: Supply reported Percent Effect belonging to this molecule: COCCc1noc(CNC2CCc3nc(C(C)C)nn3C2)n1 (stereo not drawn)
Data returned: -1.47

Data request: Supply reported Percent Effect belonging to this molecule: Cc1cnn(C2CCCN(C(=O)c3ccc(N(C)C)nn3)C2)c1 (stereo not drawn)
Data returned: -3.44

Data request: Supply reported Percent Effect belonging to this molecule: `Cn1cccc1C(=O)N1CC[C@H]2C[C@@H](c3ccncn3)O[C@@H]2C1`
Data returned: -5.79

Data request: Supply reported Percent Effect belonging to this molecule: `O=C(c1cccc(S(=O)(=O)NCCCc2ccco2)c1)N1CCOCC1`
Data returned: -4.29

Data request: Supply reported Percent Effect belonging to this molecule: CCC1c2cccn2CCN1C(=O)c1ccc2nonc2c1 (stereo not drawn)
Data returned: -6.68

Data request: Supply reported Percent Effect belonging to this molecule: `CN1CCN(Cc2nc3ccccc3[nH]2)[C@H]2CS(=O)(=O)C[C@H]21`
Data returned: -1.9

Data request: Supply reported Percent Effect belonging to this molecule: CC(=O)N1CCOCC2(CN(Cc3ccc(C)o3)CCO2)C1 (stereo not drawn)
Data returned: -8.61

Data request: Supply reported Percent Effect belonging to this molecule: CSCCC1c2nc[nH]c2CCN1Cc1ccnc2ccccc12 (stereo not drawn)
Data returned: -3.26

Data request: Supply reported Percent Effect belonging to this molecule: `CC(C)N1CCC(NCc2cccnc2N(C)Cc2ccccc2)CC1`
Data returned: -6.5

----------
- system.under.test: Tyrosyl-tRNA synthetase, putative (Trypanosoma cruzi (strain CL Brener)) (UniProt Q4DSP6)
- Sequence (Q4DSP6 as listed by the source): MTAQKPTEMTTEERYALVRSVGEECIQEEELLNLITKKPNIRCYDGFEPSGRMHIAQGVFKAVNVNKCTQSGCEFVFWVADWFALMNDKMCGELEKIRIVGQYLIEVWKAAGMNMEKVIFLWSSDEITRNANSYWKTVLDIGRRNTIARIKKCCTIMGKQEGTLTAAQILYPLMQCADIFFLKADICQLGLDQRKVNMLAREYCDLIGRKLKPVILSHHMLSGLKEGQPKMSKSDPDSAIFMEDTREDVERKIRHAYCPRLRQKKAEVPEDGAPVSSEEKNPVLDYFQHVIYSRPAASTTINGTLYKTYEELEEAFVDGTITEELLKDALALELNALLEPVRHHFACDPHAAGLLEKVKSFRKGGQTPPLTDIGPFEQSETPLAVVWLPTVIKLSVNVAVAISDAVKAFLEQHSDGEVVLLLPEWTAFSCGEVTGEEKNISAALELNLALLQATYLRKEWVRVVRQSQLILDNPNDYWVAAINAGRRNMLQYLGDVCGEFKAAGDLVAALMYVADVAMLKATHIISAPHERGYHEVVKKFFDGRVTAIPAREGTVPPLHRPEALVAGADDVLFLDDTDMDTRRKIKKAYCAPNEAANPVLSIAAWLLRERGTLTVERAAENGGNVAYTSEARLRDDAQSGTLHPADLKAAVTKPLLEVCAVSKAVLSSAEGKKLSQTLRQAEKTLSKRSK
- protocol: Trypanosoma cruzi tyrosyl tRNA synthetase (TcYRS) _High Tyrosine SOP; further: in the data most compounds retested in dose-response had high values
- Format: functional
- Design: scale not given: direction of the effect not stated beside the values
- cond: 30 µM
Please go through the items and note down their Percent Effect.
Provide the reading as a plain figure in %.

Data request: Supply reported Percent Effect belonging to this compound: `Cc1ccc(CNC(=O)NCc2csc(C)n2)cn1`
Data returned: 5.42

Data request: Supply reported Percent Effect belonging to this compound: COc1cccc(C(=O)NCC(O)c2cccs2)c1 (configuration not stated)
Data returned: 7.53

Data request: Supply reported Percent Effect belonging to this compound: `COc1ccnc(N2CCN(C(=O)Cc3ccc(C)s3)CC2)n1`
Data returned: 9.52

Data request: Supply reported Percent Effect belonging to this compound: `CS(=O)(=O)c1ccc(OCCNCc2ccc(F)cc2F)cc1`
Data returned: 8.33

Data request: Supply reported Percent Effect belonging to this compound: `O=c1oc(-c2ccc(F)cc2)nn1CN1CCN(C2CCCC2)CC1`
Data returned: 9.71

Data request: Supply reported Percent Effect belonging to this compound: `CSC(C)(C)CNC(=O)NCCC1CCN(C)CC1`
Data returned: 1.64

Data request: Supply reported Percent Effect belonging to this compound: `CC(C)OCCN1CCN(C(=O)c2cccc(CC#N)c2)CC1`
Data returned: 4.85

Data request: Supply reported Percent Effect belonging to this compound: CC(C)(CNC(=O)OC(C)(C)C)NC(=O)C1CC(=O)N(C2CC2)C1 (configuration not stated)
Data returned: -2.15

Data request: Supply reported Percent Effect belonging to this compound: `O=C(c1cccnc1)N1CC[C@H](OCC2CC2)[C@@H]1Cc1cccnc1`
Data returned: 1.04

Data request: Supply reported Percent Effect belonging to this compound: `CN(Cc1ccc(F)cc1)C(=O)NCc1nnc2n1CCCCC2`
Data returned: 6.4

Data request: Supply reported Percent Effect belonging to this compound: CN(Cc1ncc(-c2ccccc2)o1)CC1CCCN1c1cccnn1 (configuration not stated)
Data returned: 2.86

Data request: Supply reported Percent Effect belonging to this compound: `CC1CCN(C(=O)c2ccn(COc3ccc(F)cc3)n2)CC1`
Data returned: 6.45

----------
- system.under.test: Proteasome subunit beta (Trypanosoma cruzi) (UniProt O96673)
- Sequence (whole entry): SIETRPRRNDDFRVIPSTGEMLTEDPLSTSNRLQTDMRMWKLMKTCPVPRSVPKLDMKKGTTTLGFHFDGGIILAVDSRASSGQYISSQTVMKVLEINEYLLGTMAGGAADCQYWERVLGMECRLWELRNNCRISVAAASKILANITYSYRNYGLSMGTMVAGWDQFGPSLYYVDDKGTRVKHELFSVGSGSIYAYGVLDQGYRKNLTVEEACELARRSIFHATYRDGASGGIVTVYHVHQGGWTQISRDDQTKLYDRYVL
- protocol: Trypanosoma cruzi proteasome chymotrypsin-like activity (TcProtChymo) assay. Further: in the data most compounds retested in dose-response had high values.
- Type: functional
- Design: scale not given: direction of the effect not stated beside the values
- cond: 9.37 µM
Please go through the items and note down their Percent Effect.
Quote the value and follow it with the unit of measurement.

Data request: Specify Percent Effect for `COCc1ccc(CNC(=O)C2=NN(c3ccccc3)C(=O)CN2)cc1` , system Proteasome subunit beta (Trypanosoma cruzi) (UniProt O96673).
Data returned: 14%

Data request: Specify Percent Effect for Cn1nccc1C(=O)N1CCOC(Cc2cccnc2)C1 (stereo unspecified) , system Proteasome subunit beta (Trypanosoma cruzi) (UniProt O96673).
Data returned: -4.85%

Data request: Specify Percent Effect for COc1ccc(C2OC(COc3ccccc3Br)=NN2C(C)=O)cc1 (stereo unspecified) , system Proteasome subunit beta (Trypanosoma cruzi) (UniProt O96673).
Data returned: 9.22%

Data request: Specify Percent Effect for O=C(CCC1CCCO1)NS(=O)(=O)c1ccc(Cl)cc1 (stereo unspecified) , system Proteasome subunit beta (Trypanosoma cruzi) (UniProt O96673).
Data returned: 17.5%

Data request: Specify Percent Effect for COC(=O)C(c1cc(F)ccc1F)N(C)C(=O)c1cccnc1O (stereo unspecified) , system Proteasome subunit beta (Trypanosoma cruzi) (UniProt O96673).
Data returned: 10.3%

Data request: Specify Percent Effect for `O=C1COC2(CCN(CC3CC3)CC2)CN1c1ccccc1` , system Proteasome subunit beta (Trypanosoma cruzi) (UniProt O96673).
Data returned: 18.6%
